Origin of values: ChEMBL document CHEMBL1909510

test system: SK-MEL-2; test: Cytotoxicity against human SK-MEL-2 cells after 48 hrs by sulforhodamine B assay; type: functional, cell-based; conditions: SK-MEL-2, 48 h
Collected IC50 values appear next to each entry.
Give the number; µM is assumed, so skip it.

COc1cc(CCC(=O)OC[C@H](Cc2ccc(O)c(OC)c2)[C@H](COC(=O)CCc2ccc(O)c(OC)c2)Cc2ccc(O)c(OC)c2)ccc1O (racemic); 10.3
COc1cc(CCC(=O)OC[C@H](Cc2ccc(O)c(OC)c2)[C@H](CO)Cc2ccc(O)c(OC)c2)ccc1O (racemic); 64
COc1cc(/C=C/C(=O)OC[C@H](Cc2ccc(O)c(OC)c2)[C@H](CO)Cc2ccc(O)c(OC)c2)ccc1O (racemic); 17.3

Exercise: # value lookup — system SK-MEL-2, readout IC50, item COc1cc(/C=C/C(=O)OC[C@H](Cc2ccc(O)c(OC)c2)[C@H](COC(=O)/C=C/c2ccc(O)c(OC)c2)Cc2ccc(O)c(OC)c2)ccc1O (racemic)
Key: 8.3

Exercise: # value lookup — system SK-MEL-2, readout IC50, item COc1cc(CC(=O)OC[C@H](Cc2ccc(O)c(OC)c2)[C@H](COC(=O)Cc2ccc(O)c(OC)c2)Cc2ccc(O)c(OC)c2)ccc1O (racemic)
Key: 14.2
